molecular target: furin, P09958; assay: furin cleavage Z-score vs untreated control; higher = more cleavage, active = 3.5 or more, inactive = 1 or less, 8 variable residues between constant flanks; details: 15 min;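 also: purified furin at 1:10 enzyme:substrate in 50 mM HEPES pH 7.5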
Sequence (P09958 whole entry): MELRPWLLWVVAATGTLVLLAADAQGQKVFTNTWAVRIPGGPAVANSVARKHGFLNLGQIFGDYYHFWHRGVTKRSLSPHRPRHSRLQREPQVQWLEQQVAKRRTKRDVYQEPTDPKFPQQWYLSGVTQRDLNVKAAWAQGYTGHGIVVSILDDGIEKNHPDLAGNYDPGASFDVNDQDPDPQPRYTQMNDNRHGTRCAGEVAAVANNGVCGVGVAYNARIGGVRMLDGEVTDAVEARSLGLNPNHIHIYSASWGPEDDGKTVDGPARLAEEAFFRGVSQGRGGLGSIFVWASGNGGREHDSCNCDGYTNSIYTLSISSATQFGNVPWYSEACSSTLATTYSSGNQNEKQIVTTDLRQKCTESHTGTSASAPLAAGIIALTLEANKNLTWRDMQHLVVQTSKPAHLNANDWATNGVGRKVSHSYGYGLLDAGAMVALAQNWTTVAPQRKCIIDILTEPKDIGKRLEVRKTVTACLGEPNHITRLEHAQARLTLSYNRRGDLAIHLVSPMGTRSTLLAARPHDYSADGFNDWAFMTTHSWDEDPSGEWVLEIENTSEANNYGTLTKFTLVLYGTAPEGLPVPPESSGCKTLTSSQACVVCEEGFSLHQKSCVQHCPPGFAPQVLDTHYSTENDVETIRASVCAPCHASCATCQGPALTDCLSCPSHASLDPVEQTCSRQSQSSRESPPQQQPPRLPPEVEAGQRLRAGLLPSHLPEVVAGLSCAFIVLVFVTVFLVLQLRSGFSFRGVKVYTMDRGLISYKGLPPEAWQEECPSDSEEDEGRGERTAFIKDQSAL
The other results are listed elsewhere or left out. The hit rate among all sequences tested is not known here.
Assignment: determine reported furin cleavage Z-score for the given sequences.
Numbers only.

CALVAEEDERAGNASASA [HC1290]; -1.05
CAMHLQGPEDAGNASASA [NG10]; -0.679
CASCSSNVSVAGNASASA [HC1553]; -0.606
CANQLRVKRSAGNASASA [FS-554]; 5
CARGRRSRRAAGNASASA [FS-1062]; 4.73
CADREVPCHRAGNASASA [HC2431]; 1.78

Find the recorded furin cleavage Z-score belonging to CARGRRSHDPAGNASASA [FS-2674] and report it.
3.42

FYI, the data here is from the supplement of paper PMC3545927.
